Entries with reported pIC50 on Epidermal growth factor receptor (Homo sapiens, UniProt P00533, L858R/T790M)
Sequence (P00533 25-1210 T790M/L858R limits assumed): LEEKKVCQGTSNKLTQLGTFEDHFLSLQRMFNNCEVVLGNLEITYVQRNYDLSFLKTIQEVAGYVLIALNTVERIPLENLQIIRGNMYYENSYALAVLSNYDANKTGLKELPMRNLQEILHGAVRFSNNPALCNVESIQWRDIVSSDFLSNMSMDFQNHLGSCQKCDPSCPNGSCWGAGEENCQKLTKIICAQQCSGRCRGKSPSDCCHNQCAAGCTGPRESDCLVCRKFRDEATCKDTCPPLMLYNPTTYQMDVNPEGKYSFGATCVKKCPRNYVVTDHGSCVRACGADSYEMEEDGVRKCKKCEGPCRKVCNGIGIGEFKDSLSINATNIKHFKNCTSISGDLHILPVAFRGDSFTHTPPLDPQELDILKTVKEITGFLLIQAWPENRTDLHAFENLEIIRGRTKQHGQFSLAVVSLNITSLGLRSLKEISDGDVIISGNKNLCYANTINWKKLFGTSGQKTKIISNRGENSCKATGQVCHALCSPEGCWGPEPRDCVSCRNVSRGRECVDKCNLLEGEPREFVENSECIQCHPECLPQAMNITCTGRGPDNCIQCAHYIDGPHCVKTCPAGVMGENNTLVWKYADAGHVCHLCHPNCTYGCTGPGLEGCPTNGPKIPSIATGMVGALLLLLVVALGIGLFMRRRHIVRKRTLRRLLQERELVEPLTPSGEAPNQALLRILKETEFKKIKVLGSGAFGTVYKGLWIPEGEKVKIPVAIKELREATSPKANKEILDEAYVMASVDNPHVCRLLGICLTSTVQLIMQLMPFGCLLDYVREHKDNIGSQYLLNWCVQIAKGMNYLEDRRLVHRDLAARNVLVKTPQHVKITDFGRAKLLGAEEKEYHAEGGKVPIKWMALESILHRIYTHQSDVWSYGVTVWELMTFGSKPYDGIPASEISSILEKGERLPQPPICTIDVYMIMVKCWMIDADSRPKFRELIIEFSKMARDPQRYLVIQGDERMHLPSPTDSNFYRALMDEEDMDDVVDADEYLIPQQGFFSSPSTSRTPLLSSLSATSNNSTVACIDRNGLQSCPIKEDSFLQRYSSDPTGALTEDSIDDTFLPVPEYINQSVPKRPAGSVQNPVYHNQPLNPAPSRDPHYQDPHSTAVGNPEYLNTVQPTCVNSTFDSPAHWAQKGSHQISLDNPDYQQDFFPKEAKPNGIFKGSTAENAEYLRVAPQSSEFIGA
pIC50: −log10 of the molar value.
recorded_endpoint: pIC50

CCOC(C)Oc1cc2ncnc(Nc3ccc(F)c([N+](=O)[O-])c3)c2c2c1OCCO2 (stereo not given) = 6.57

[1] C#Cc1cccc(Nc2ncnc3cc(OC(C)COC)c4c(c23)OCCO4)c1 (stereo not given)
[2] COc1cc2ncnc(Nc3ccc(F)c(Cl)c3)c2c2c1OCCO2
Q: Between 1 and 2 , which one shows the larger pIC50 value? Give the label of your selection.
Result: 1
(1: 7.12, 2: 6.00)

* * *

- system_under_test: Epidermal growth factor receptor (Homo sapiens)
- method_summary: Inhibition of wild type EGFR (unknown origin) autophosphorylation preincubated for 30 mins followed by ATP addition measured after 1 hr by kinase-glo luminescence assay
recorded_endpoint: IC50 (µM)

Some compounds with known IC50 results, for comparison:
Fc1ccc(Nc2ncnc3cc(OCC4CCCO4)c4c(c23)OCCO4)cc1Cl (stereo not given) = 0.0241
COc1cc2ncnc(Nc3ccc(F)c(Cl)c3)c2c2c1OCCO2 = 0.0225
Fc1ccc(Nc2ncnc3cc(OCCCN4CCOCC4)c4c(c23)OCCO4)cc1Cl = 0.0259

[A] Fc1ccc(Nc2ncnc3cc(OC4CCOCC4)c4c(c23)OCCO4)cc1Cl
[B] COCCOc1cc2ncnc(Nc3cccc(OC)c3)c2c2c1OCCO2
[C] CCOc1cc2ncnc(Nc3ccc(F)c(Cl)c3)c2c2c1OCCO2
[D] COCCOc1cc2ncnc(Nc3ccc(Cl)c([N+](=O)[O-])c3)c2c2c1OCCO2
[E] COCCOc1cc2ncnc(Nc3ccc(F)c(C#N)c3)c2c2c1OCCO2
Q: Hello, I need these entries ordered by IC50, highest reading first. Thanks! List labels; respect the requested ordering.
Result: E, B, A, D, C

[P] Cc1ccc(Nc2ncnc3cc(OC(C)C)c4c(c23)OCCO4)cc1[N+](=O)[O-]
[Q] C#Cc1cccc(Nc2ncnc3cc(OC4CCOCC4)c4c(c23)OCCO4)c1
Q: Between P and Q , which one shows the larger IC50 value? Give the label of your selection.
Result: P
